Assay: melting temperature; fluorescence melt of hairpins on a sequencing array, two-state fit, raised by 9.35 °C to match UV melts
Settings: sodium 0.088 M
Reported Tm values for the following sequences.
Could you give the number and then its unit, please?

// solved cases for Tm follow
Tell me measured Tm for GTGTAAGAAATTACAC ((((((....)))))) please.
46.1 °C

For the sequence GTGCTTGGAAACAAGTGC (..((((....))))..) , give its measured Tm value.
43 °C

Tell me Tm reported for GTCTCTTCGAAAGAAGAC (((..(((....))))))
32 °C

Continuing:
Input GACAAAGGAAACTTTGCC (.(((((....))))).) , output reported Tm.
33.3 °C

Please report the measured Tm for GCTGCCCGAAAGGGTAGC (((.(((....))).)))
69 °C

Kindly indicate its recorded Tm. Item: GATTGCGAAAGCAGAATC ((((((....)))..)))
35.4 °C

Hello, please tell me recorded Tm for this one: GCTACAGGAAACTGTGGC ((.((((....)))).))
51.8 °C

// Input: GATCACCCGTGTGATC ((((((....)))))) . Output its Tm only.
55.5 °C

Return reported Tm. Input sequence: GATCGGCTTACCGATC ((((((....))))))
57.7 °C

Answer with the recorded Tm for the sequence listed here: GCGCTCGAAAGAGCTCGC ((((((....)))..)))
47.8 °C

====

Experiment: melting temperature; fluorescence melt of hairpins on a sequencing array, two-state fit, raised by 9.35 °C to match UV melts
Conditions: sodium 0.088 M
Response field label takes true (1) when Tm is strictly below 50 °C and false (0) in all other cases.

Example cases with answers are listed next.
Decide: Tm of GCTGCGCGAAAGCTCAGC ((((.((....)).)))) strictly below 50 °C?
false (0)

Lab log: compare recorded Tm with 50 °C; is it strictly lower for GATCAGAATCTGATC ((((((...)))))) ?
true (1)

Answer whether the sequence GATCCCCGAAAGGGCATC (((.(((....))).))) has Tm strictly less than 50 °C
true (1)

Record GATCGTCTGCACGATC ((((((....)))))) : is its Tm strictly below 50 °C?
false (0)

State whether 50 °C exceeds Tm recorded for GGTACCGAAAGGTAAACC ((((((....)))..))) .
true (1)

Would you kindly verify if Tm of GGTTCCGGAAACGGGACC (((.(((....))).))) is strictly less than 50 °C?
false (0)

Does the reported Tm of GCCGAGGGAAACCCCGGC ((((.((....)).)))) stay below 50 °C?
false (0)

Here's an entry: GTGTAAGGAAACTCACAC ((((.((....)).)))) . Is its Tm below 50 °C?
true (1)

Others:
Does GGCATCGAAAGATACGCC ((((((....)))..))) have Tm strictly under 50 °C?
true (1)

Confirm or reject: Tm of GCGCGCGAAAGCGCACGC ((((((....)))..))) lies strictly below 50 °C
false (0)

Answer whether the sequence GCTTCTGGAAACAGAAAC (.(((((....))))).) has Tm strictly less than 50 °C
true (1)

====

Assay: melting temperature; fluorescence melt of hairpins on a sequencing array, two-state fit, raised by 9.35 °C to match UV melts
Settings: sodium 0.088 M
measure name: Tm (°C)
Report the value in °C with no unit label.

Please supply the value of reported Tm for the item GATCGGCCCCCGATC ((((((...))))))
56

Supply recorded Tm for GATCAGCATTCTGATC ((((((....)))))) here.
48.8

Specify measured Tm for GCCTAGGGAAACCCAGGC ((((.((....)).)))) .
50.6

***
Please indicate Tm recorded for GCCTACGAAAGTACGGC ((((((....))).)))
51.5

====

Entries and their Tm
Assay: melting temperature; fluorescence melt of hairpins on a sequencing array, two-state fit, raised by 9.35 °C to match UV melts
Settings: sodium 0.088 M

Determine from records and report Tm for GCCCCGCGAAAGCGGTGC ((.((((....)))).))
61.5 °C

Look up and state reported Tm for GCCGGCGAAAGCCTGGGC ((((((....)))..)))
60 °C

Supply reported Tm belonging to this sequence: GGGATATCGAAAGATCCC (((..(((....))))))
43.4 °C

In one line, give reported Tm of the entry GATCAAACTCTTGATC ((((((....)))))) .
40.5 °C

Give the measured Tm for CGACTCGGAAACGACTCG (((.(((....))).)))
34.2 °C

Quote Tm reported for GCAGAGGGAAACCTCCAC (..((((....))))..) please.
25.4 °C

Give a short answer stating reported Tm for GATCGTCCTACGATC ((((((...)))))) .
56.5 °C

Tell me measured Tm for TCAGAGAAATCTGA (((((....))))) please.
27.6 °C

For the sequence GGTGTGGGAAACTACGCC ((.((.(....).)).)) , report Tm.
43.4 °C

Identify measured Tm associated with GGTAAACGAAAGTTAACC (((.(((....))).)))
43.2 °C

Others:
Dear colleague, please send me the reported Tm for GGTGAGGGAAACCCCACC ((((.((....)).)))) when you can.
50.5 °C

====

# Tm per record follows
Assay: melting temperature; fluorescence melt of hairpins on a sequencing array, two-state fit, raised by 9.35 °C to match UV melts
Settings: sodium 0.088 M
Hi! Could you send only the number? It should be in °C, unit omitted.

// worked examples, Tm included
Give Tm for the following sequence: GATCGACCTGTCGATC ((((((....))))))
65

// Input: GGCCGGTCGAAAGACGCC (((..(((....)))))) . Output its Tm only.
48.4

Read off the recorded Tm for GTTTCAGAAATGAAAC ((((((....))))))
47.2

---
Return value of Tm for input GATCCGTGAACGGATC ((((((....)))))) , no commentary.
60.5

Please give the documented Tm of GCGACACGAAAGTGCGC (((.(((....))))))
63.9

Report Tm for GCGAGTTTCGC ((((...))))
51

In one line, give reported Tm of the entry GCCTCGCGAAAGCTCGGC (((..((....))..))) .
46.4

Identify the reported Tm for the following entry. GCAATGCGAAAGCGGTGC (((..((....))..)))
56.6

====

# folding enthalpy listing for each entry below
Assay: folding enthalpy; higher = less favourable; fluorescence melt of hairpins on a sequencing array, two-state fit
Conditions: sodium 0.088 M
Write the answer as a number in kJ/mol, unit excluded.

Worked examples follow.
Look up and report measured folding enthalpy for this entry: GATCTTGGATAAGATC ((((((....))))))
-128

Report folding enthalpy, nothing else, for this sequence: GATCCCTGCGGGGATC ((((((....))))))
-191

Item GCGGGGCGAAAGCTCGGC ((.(.((....)).).)) : provide folding enthalpy
-68.6

Give a short answer stating reported folding enthalpy for GGAGCACGAAAGTGATCC (((.(((....))).))) .
-160

***
Let me know recorded folding enthalpy for GTATGCTCGAAAGAGTAC (((..(((....)))))) , thanks.
-44

Identify measured folding enthalpy corresponding to GCTGTCGAAAGACAAAGC ((((((....)))..)))
-99.9

Kindly indicate its recorded folding enthalpy. Item: GATCGATTCTTCGATC ((((((....))))))
-154

====

Listed here are sequences together with their documented folding enthalpy.
Test: folding enthalpy; higher = less favourable; fluorescence melt of hairpins on a sequencing array, two-state fit
Conditions: sodium 0.088 M
Output spec: scalar in kcal/mol, unitless text.

Illustrative cases are given below, each with its answer.
Look up and state reported folding enthalpy for GATCTAGCTTAGATC ((((((...))))))
-29.4

Kindly indicate its recorded folding enthalpy. Item: GATCTACCTTTAGATC ((((((....))))))
-30.4

Identify measured folding enthalpy associated with GCATAGCGAAAGCCCTGC (((..((....))..)))
-7.04

Indicate the recorded folding enthalpy value for this sequence: GAATTGGGAAACTGATTC ((((..(....)..))))
-13.2

For GTAAGGGGAAACTCTTAC (((((.(....).))))) , write its folding enthalpy.
-34.4

New cases:
Identify measured folding enthalpy associated with GCAACCGCGAAAGCGTGC (((..(((....))))))
-14.3

Supply folding enthalpy value. Item: GATCCGATCCCGGATC ((((((....))))))
-38.9

Read the entry GACTTCGAAAGAAGTC ((((((....)))))) and write its reported folding enthalpy.
-38.8

Determine from records and report folding enthalpy for GGTGACGGAAACGTCATC (.(((((....))))).)
-38.2
